# Tested on: Staphylococcus aureus 209p
# Procedure Summary: MIC, plate method, standard strains
# Assay type: cell-based
# Run Conditions: Table 4, standard strain; unit assumed
Hi there, I'd appreciate the recorded MIC Staphylococcus aureus 209p for every entry that follows.
Numbers only, in µg/mL.

Consider the following illustrative entries.
# Compound, Test System, Unit Symbol, Readout Value
rows = [
    ("CCN1CCN(C(=O)NC(C(=O)NC2C(=O)N3C(C(=O)O)=C(COC)CSC23)c2ccccc2)C(=O)C1=O (single isomer, unassigned)", "Staphylococcus aureus 209p", "µg/mL", 0.79),
    ("CCN1CCN(C(=O)NC(C(=O)NC2C(=O)N3C(C(=O)O)=C(CSc4nnc(C)s4)CSC23)c2ccc(O)cc2)C(=O)C1=O (single isomer, unassigned)", "Staphylococcus aureus 209p", "µg/mL", 1.57),
    ("CCN1CCN(C(=O)NC(C(=O)NC2C(=O)N3C(C(=O)O)=C(CSc4cnn[nH]4)CSC23)c2ccccc2)C(=O)C1=O (single isomer, unassigned)", "Staphylococcus aureus 209p", "µg/mL", 1.57),
    ("CCN1CCN(C(=O)NC(C(=O)NC2C(=O)N3C(C(=O)O)=C(CSc4nncs4)CSC23)c2ccc(O)cc2)C(=O)C1=O (single isomer, unassigned)", "Staphylococcus aureus 209p", "µg/mL", 1.57),
    ("CCCCCCCCN1CCN(C(=O)N[C@@H](C(=O)NC2C(=O)N3C(C(=O)O)=C(CSc4nnnn4C)CSC23)c2ccccc2)C(=O)C1=O (single isomer, unassigned)", "Staphylococcus aureus 209p", "µg/mL", 1.57),
    ("CCCCN1CCN(C(=O)NC(C(=O)NC2C(=O)N3C(C(=O)O)=C(CSc4nnnn4C)CSC23)c2ccccc2)C(=O)C1=O (single isomer, unassigned)", "Staphylococcus aureus 209p", "µg/mL", 1.57),
    ("Cn1nnnc1SCC1=C(C(=O)O)N2C(=O)C(NC(=O)C(NC(=O)N3CCN(CCO)C(=O)C3=O)c3ccc(O)cc3)C2SC1 (single isomer, unassigned)", "Staphylococcus aureus 209p", "µg/mL", 1.57),
    ("CCN1CCN(C(=O)NC(C(=O)NC2C(=O)N3C(C(=O)O)=C(CSc4nnnn4CC)CSC23)c2ccc(O)cc2)C(=O)C1=O (single isomer, unassigned)", "Staphylococcus aureus 209p", "µg/mL", 3.13),
]

Look at each compound and report its MIC Staphylococcus aureus 209p.
1. Cn1nnnc1SCC1=C(C(=O)O)N2C(=O)C(NC(=O)C(NC(=O)N3CCN(CCO)C(=O)C3=O)c3ccccc3)C2SC1 (single isomer, unassigned)
2. CCN1CCN(C(=O)NC(C(=O)NC2C(=O)N3C(C(=O)O)=C(CSc4nnnn4CC)CSC23)c2ccccc2)C(=O)C1=O (single isomer, unassigned)

Ans:
1.57
1.57

###

# Test system: Escherichia coli
# Procedure Summary: MIC against clinical isolates
# Format: cell-based
# Run Conditions: Table 5-2, clinical isolate; unit assumed
Measured Property: MIC Escherichia coli GN 3452 (µg/mL)
Numbers only, in µg/mL.

// input: 3 compounds below; output: MIC Escherichia coli GN 3452 for each
1. CC1(C)S[C@@H]2[C@H](NC(=O)[C@H](N)c3ccccc3)C(=O)N2[C@H]1C(=O)O [Sodium Ampicillin, reference compound]
2. CCCCCCCCN1CCN(C(=O)NC(C(=O)NC2C(=O)N3C2SC(C)(C)C3C(=O)O)c2ccccc2)C(=O)C1=O (single isomer, unassigned)
3. CC1(C)S[C@@H]2[C@H](NC(=O)C(c3ccccc3)S(=O)(=O)O)C(=O)N2[C@H]1C(=O)O (stereo partly drawn) [Sodium Sulbenicillin, reference compound]

Ans:
6.25
1.57
12.5
